The values you see were collected from the supplement of paper PMC13380429.

Test system: HepG2
procedure.text: drug sensitivity score (DSS) for viability; higher = more toxic; extreme values may be limits of the assay
test.parameters: 72 h
observable: drug sensitivity score
Number, no unit, nothing else.

Documented drug sensitivity score of COc1ccc(COc2cc3oc(=O)c4cc(C(C)O)ccc4c3cc2OC)cc1 (stereo not drawn) : 0

Documented drug sensitivity score of "Cc1c2oc3c(C)ccc(C(=O)N[C@@H]4C(=O)N[C@H](C(C)C)C(=O)N5CCC[C@H]5C(=O)N(C)CC(=O)N(C)[C@@H](C(C)C)C(=O)O[C@@H]4C)c3nc-2c(C(=O)N[C@@H]2C(=O)N[C@H](C(C)C)C(=O)N3CCC[C@H]3C(=O)N(C)CC(=O)N(C)[C@@H](C(C)C)C(=O)O[C@@H]2C)c(N)c1=O" : 35.8

Documented drug sensitivity score of CC(C)(C)C1CCc2c(sc(NC(=O)c3ccco3)c2C(=O)O)C1 (stereo not drawn) : 3

Documented drug sensitivity score of "Cc1ccc(-n2nc(C(C)(C)C)cc2NC(=O)NCc2cc(F)ccc2Oc2ccc3c(cnn3CCO)c2)cc1" : 7

Documented drug sensitivity score of "COc1cc(CN2CCN(c3ccc(F)cc3)CC2)cc(OC)c1OC" : 0

Documented drug sensitivity score of "O=C(O)CC[C@H]1CC[C@@](c2cc(F)ccc2F)(S(=O)(=O)c2ccc(Cl)cc2)CC1" : 0

Documented drug sensitivity score of "C=C(C)[C@H]1CN[C@H](C(=O)O)[C@H]1CC(=O)O" : 0

Documented drug sensitivity score of COC(=O)C1=C(C)NC(C)=C(C(=O)OCCN(C)Cc2ccccc2)C1c1cccc([N+](=O)[O-])c1 (stereo not drawn) : 0

Documented drug sensitivity score of "C[C@@H]1O[C@@H]1P(=O)(O)O" : 0

Documented drug sensitivity score of "C[C@@H](NCc1cc(Br)cc2nc(O)c(O)nc12)P(=O)(O)O" : 0

Documented drug sensitivity score of "C[C@@H]1CN(c2c(F)c(N)c3c(=O)c(C(=O)O)cn(C4CC4)c3c2F)C[C@H](C)N1" : 0

Documented drug sensitivity score of "Cc1ccccc1/N=N/c1ccc(/N=N/c2c(O)ccc3ccccc23)c(C)c1" : 2.2

Documented drug sensitivity score of "CCCCCCCCCCCCCCCCOP(=O)([O-])OCC[N+](C)(C)C" : 0

Documented drug sensitivity score of Cc1ncc([N+](=O)[O-])n1CC(C)O (stereo not drawn) : 0

Documented drug sensitivity score of "CC(C)(N)C(=O)N[C@H](COCc1ccccc1)C(=O)N1CCC2(CC1)CN(S(C)(=O)=O)c1ccccc12" : 0

Documented drug sensitivity score of "Cc1onc(-c2c(Cl)cccc2Cl)c1C(=O)N[C@@H]1C(=O)N2[C@@H]1SC(C)(C)[C@@H]2C(=O)O" : 0

Documented drug sensitivity score of C[N+]12CCCCC1CCC(=C(c1cccs1)c1cccs1)C2 (stereo not drawn) : 0

Documented drug sensitivity score of CC12CCC(C(=O)N(CCCCN3CCN(c4ccccn4)CC3)C1=O)C2(C)C (stereo not drawn) : 0
